# Tested on: UO-31
# test_description: NCI tumour cell line growth inhibition, 48 h
Active and inactive are the calls of the source. No stated cut-off is given here; in the data, active = GI50 up to about 1.1 µM and inactive = higher.
Outcomes: 1 for active, 0 for inactive

compound	assigned_class
C=CC(C)C1(CCCOCc2ccccc2)C(=S)N2CCC3(CC24CCCC14)OCCO3 (stereo not given)	0
CCOC(=O)c1cc(C2CCN(Cc3ccccc3)C2=S)c(C(=O)C=[N+]=[N-])[nH]1 (stereo not given)	0
COc1cccc(CSCC(=O)O)c1	0
N#CC(c1cc(Cl)ncn1)c1nc2cc(C(F)(F)F)ccc2s1 (stereo not given)	0
O=C1[C@H](O)[C@@H]2C(O)O[C@H]3[C@@H]2N1C[C@H]3[Si](c1ccccc1)(c1ccccc1)c1ccccc1 (stereo not given in full)	0
COC(=O)C(=O)Cc1nc2ccccc2o1	0
CCCCN(CCCC)C(=O)C(=O)C(C)C(=O)CC (stereo not given)	0
Cc1cccc2c1C(=O)[C@](C)([C@]1(C)Nc3cccc(C)c3C1=O)N2	0
CC12CCC([C@H](N3CCOCC3)/C1=N\OCCN1CCCC1)C2(C)C (stereo not given in full)	0
COC(=O)c1cc2cc(OC)c(OC)cc2cc(C(=O)OC)c1=O	0
C#CCOC(=O)C(N)CC(N)=O (stereo not given)	0
O=C(c1ccc(Cl)cc1)N(C(=S)N1CCN(c2ccccn2)CC1)c1ccccc1	0
Cc1ccc(-c2cc(=O)c3cc(C)c(C)c(C(=O)O)c3o2)cc1	0
COC(=O)[C@@]12OC[C@]34C([C@@H](O)C1O)[C@@]1(C)CC(=O)C(OC(=O)CC(C)C(F)(F)F)=C(C)C1C[C@H]3OC(=O)[C@H](O)[C@H]42 (stereo not given in full)	0
C=C(C)[C@H]1C=C[C@@H](OC(C)=O)[C@@]2(COC(C)=O)[C@H](OC(=O)CCC)[C@H]3[C@@H](OC(C)=O)[C@@H](C)C[C@]3(O)C(=O)[C@@](C)(OC(C)=O)[C@H]12	0
CC1(Cl)CCC2(CC(Br)=CC3OC32C)CC1Br (stereo not given)	0
COC1C(OC(=O)c2ccc(C)[nH]2)C(O)C(Oc2ccc3c(O)c(NC(=O)c4c[nH]c(C(=O)Nc5c(O)c6ccc(OC7OC(C)(C)C(OC)C(OC(=O)c8ccc(C)[nH]8)C7O)c(C)c6oc5=O)c4C)c(=O)oc3c2C)OC1(C)C (stereo not given)	0
CCOC(=O)c1c(C)n(-c2ccc(C)cc2)c(=O)c2ccccc2c(=O)c2c(=O)ccc(=O)c1=2	0
CC(C)(C)OC(=O)NCCC1SC2C=CC1C2 (stereo not given)	0
O=C1c2ccccc2-c2c1c1ccccc1c(=O)n2-c1cccnc1	0
CCOC(=O)C(NC(=O)Nc1ccc(Cl)c(Cl)c1)C(F)(F)F (stereo not given)	0
CCCCCCCCCCCCCCCCNc1nc(=O)n(C2OC(C)C(O)C2O)cc1F (stereo not given)	0
CCO[C@]12C[C@H](OC)[C@@]3(O)CC(C1[C@H]3O)C13C4C2[C@H](OC)C1[C@](COC)(CN4CC)[C@H](O)C[C@@H]3OC (stereo not given in full)	0
O=C1C[C@H](Sc2ccccc2)C2(OCCO2)[C@@H](Sc2ccccc2)C1	0
Nc1cnc(Nc2cccc3ccccc23)o1	0
N#CC1CCCCCCCCCCC(=O)N(CCCl)C1=O (stereo not given)	0
COc1ccc(C2=NN(c3ccccc3)C[N+](c3ccc(C)cc3)=N2)cc1	0
c1ccc2c(c1)CCCC/C2=N/OCC1CO1 (stereo not given)	1
CC(=O)NC1C(OC(C)C(=O)NC(C)C(=O)NC(CCC(=O)NCCCCCNc2ccc([N+](=O)[O-])c3[nH]c4ccccc4c(=O)c23)C(N)=O)C(O)C(CO)OC1(C)OCc1ccccc1 (stereo not given)	0
COc1ccc(C2SC(=N)Nc3c2c(C)nn3C(=O)Cc2ccccc2)cc1 (stereo not given)	0
CCCCCCCCCCCCCCCCOCC(CP(=O)([O-])OCC[n+]1ccccc1)OC (stereo not given)	0
Cc1cc(S(=O)(=O)Nc2n[nH]c(Nc3ccccc3)n2)c(S)cc1Cl	0
O=C1c2cc3c(cc2CC12Cc1ccc4c(c1C2=O)CCCC4)CCCC3 (stereo not given)	0
CCCCOC(=O)C1C(c2ccc(Cl)cc2)NC(c2ccc(Cl)cc2)C(C(=O)OCCCC)S1(=O)=O (stereo not given)	0
CCc1ccccc1NC(=O)C1=C(C)NC(C)=C(C(=O)Nc2c(CC)cccc2CC)C1c1ccc2c(c1)OCO2 (stereo not given)	0
